# Kd annotations
- tgt: FKBP12 (Homo sapiens, UniProt P62942)
- Construct: His-tag (HRV 3C cleavable) (cleaved yes); made in house; host or cells: Escherichia coli BL21(DE3)
- Sequence (P62942 whole entry): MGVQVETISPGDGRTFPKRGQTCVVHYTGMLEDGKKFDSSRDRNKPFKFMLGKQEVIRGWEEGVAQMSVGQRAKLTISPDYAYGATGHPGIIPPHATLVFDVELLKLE
- experiment summary: Competition fluorescence polarization assay with FITC-rapamycin tracer
- Assay type: binding
- measurement context: recombinant FKBP12, Extended Data Fig. 2; read-out: Kd (FKBP12)
Unit nM implied. Number only.

compound | Kd (nM)
CCC(C)(C)C(=O)C(=O)N1CCCC[C@H]1C(=O)O[C@H](CCc1ccc(OC)c(OC)c1)c1cccc(NC(=O)CN2CCN(C)CC2)c1 [Compound 01-072] | 13

Now let's try a different one.
Task: Need Kd, item CCC(C)(C)C(=O)C(=O)N1CCCC[C@H]1C(=O)O[C@H](CCc1ccc(OC)c(OC)c1)c1cccc(NC(=O)CNC(=N)N)c1 [Compound 01-065]
Output: 38
